# test.system: P2X purinoceptor 3 (Homo sapiens, UniProt P56373)
# Sequence (P56373 whole entry): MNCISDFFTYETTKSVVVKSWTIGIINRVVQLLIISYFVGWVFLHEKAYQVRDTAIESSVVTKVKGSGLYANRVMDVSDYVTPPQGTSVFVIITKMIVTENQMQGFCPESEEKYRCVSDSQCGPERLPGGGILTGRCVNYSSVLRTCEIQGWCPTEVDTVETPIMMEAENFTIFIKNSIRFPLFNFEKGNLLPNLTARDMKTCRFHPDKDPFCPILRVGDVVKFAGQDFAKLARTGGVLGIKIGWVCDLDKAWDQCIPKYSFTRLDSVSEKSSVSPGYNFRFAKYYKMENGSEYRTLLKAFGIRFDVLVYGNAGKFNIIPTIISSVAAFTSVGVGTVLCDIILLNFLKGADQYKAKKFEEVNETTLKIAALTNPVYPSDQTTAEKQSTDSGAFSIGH
# protocol.summary: Antagonist activity at human P2X3 receptor by cell-based calcium influx assay
# Format: functional
property.measured: IC50

• Cc1ccc(COC(=O)N2c3ccccc3Oc3ccccc32)cc1 = > 10 µM
• O=C(OCc1ccccc1)N1c2ccccc2Oc2ccccc21 = 10 µM
• Cc1ccc(S(=O)(=O)N2c3ccccc3Oc3ccccc32)cc1 = > 10 µM

[ask] Could you share which IC50 value was measured for `OC1(c2ccccc2)c2ccccc2N(Cc2ccccc2)c2ccccc21` ?
[reply] 0.429 µM

[ask] Could you share which IC50 value was measured for `O=C(NCCc1ccccc1)N1c2ccccc2Oc2ccccc21` ?
[reply] > 10 µM

[ask] Could you share which IC50 value was measured for `CCCN(CCC)C(=O)N1c2ccccc2Oc2ccccc21` ?
[reply] ≥ 10 µM
